These measurements were taken from PubChem BioAssay AID602161.

TARGET: Heat shock protein HSP 90-alpha (Homo sapiens) (UniProt P07900)
EXPERIMENTAL_DETAILS: human Hsp90 inhibitors in yeast GR reporter, dose response, selectivity assay for Plasmodium Hsp90 inhibitor project, S. cerevisiae, beta-galactosidase luminescence, dry powder (AID 602161)
ASSAY_SETUP: S. cerevisiae HsHsp90 GR reporter, beta-gal luminescence
Results filed as inconclusive are left out.

COMPOUND_STRUCTURE_STRING	TARGET	AC50
Cc1ccc(OCc2n[nH]c(=S)n2C2CCCCC2)cc1	Heat shock protein HSP 90-alpha (Homo sapiens) (UniProt P07900)	12.6 µM
COc1ccc2c(c1)C=C(C(=O)NCc1ccc(Cl)cc1)CO2	Heat shock protein HSP 90-alpha (Homo sapiens) (UniProt P07900)	9.79 µM
O=S(=O)(NC1CCCCCC1)c1ccc(Br)s1	Heat shock protein HSP 90-alpha (Homo sapiens) (UniProt P07900)	2.6 µM
O=S(=O)(/C=C/c1ccccc1)NC1CCCCCCC1	Heat shock protein HSP 90-alpha (Homo sapiens) (UniProt P07900)	9.6 µM
O=C(CSCC(=O)N1CCCCC1)Nc1nc(-c2ccc(Cl)s2)cs1	Heat shock protein HSP 90-alpha (Homo sapiens) (UniProt P07900)	9.72 µM
CCOc1cc(S(=O)(=O)NC2CCCCCC2)ccc1F	Heat shock protein HSP 90-alpha (Homo sapiens) (UniProt P07900)	22.2 µM
